FYI, the data here is from the supplement of paper PMC11061612.

Collected combination Emax values appear next to each entry.
# System: GAK (Melanoma)
# Experimental Protocol: combination Emax (second highest fraction inhibited in the dose matrix, 72 h); higher = more inhibition; extreme values may be limits of the assay
When you answer, write just the number.

Observe how each entry below is paired with its result.
[[record]]
molecule = "O=C(c1cc(Cc2n[nH]c(=O)c3ccccc23)ccc1F)N1CCN(C(=O)C2CC2)CC1 [Olaparib] + CC1(C)CCC(CN2CCN(c3ccc(C(=O)NS(=O)(=O)c4ccc(NCC5CCOCC5)c([N+](=O)[O-])c4)c(Oc4cnc5[nH]ccc5c4)c3)CC2)=C(c2ccc(Cl)cc2)C1 [Venetoclax] (first compound max 10 µM, 7x7, partner max 1 µM)"
observed_property = "combination Emax"
measured = 0.0703

[[record]]
molecule = "Cn1cnc2c(F)c(Nc3ccc(Br)cc3Cl)c(C(=O)NOCCO)cc21 [Selumetinib] + CCN(CCO)CCCOc1ccc2c(Nc3cc(CC(=O)Nc4cccc(F)c4)[nH]n3)ncnc2c1 [AZD2811] (first compound max 10 µM, 7x7, partner max 1 µM)"
observed_property = "combination Emax"
measured = 0.629

[[record]]
molecule = "CC(=O)c1c(C)c2cnc(Nc3ccc(N4CCNCC4)cn3)nc2n(C2CCCC2)c1=O [Palbociclib] + CC1(C)CCC(CN2CCN(c3ccc(C(=O)NS(=O)(=O)c4ccc(NCC5CCOCC5)c([N+](=O)[O-])c4)c(Oc4cnc5[nH]ccc5c4)c3)CC2)=C(c2ccc(Cl)cc2)C1 [Venetoclax] (first compound max 10 µM, 7x7, partner max 1 µM)"
observed_property = "combination Emax"
measured = 0.205

[[record]]
molecule = "CCc1c2c(nc3ccc(O)cc13)-c1cc3c(c(=O)n1C2)COC(=O)[C@]3(O)CC [SN-38] + CN(C)CCCOc1ccc(-c2ccc3ncc4c(c3c2)n(C2CCOCC2)c(=O)n4C)cn1 [AZD0156] (first compound max 0.3 µM, 7x7, partner max 1 µM)"
observed_property = "combination Emax"
measured = 0.477

[[record]]
molecule = "N#Cc1cnc(Nc2cc(NC[C@H]3CNCCO3)c(C(F)(F)F)cn2)cn1 [SRA737] + CCc1c2c(nc3ccc(O)cc13)-c1cc3c(c(=O)n1C2)COC(=O)[C@]3(O)CC [SN-38] (first compound max 10 µM, 7x7, partner max 0.3 µM)"
observed_property = "combination Emax"
measured = 0.585


Q) I am curious: what combination Emax value has been reported for C=CCn1c(=O)c2cnc(Nc3ccc(N4CCN(C)CC4)cc3)nc2n1-c1cccc(C(C)(C)O)n1 [AZD1775] + C[C@@H]1COCCN1C2=NC(=NC(=C2)C3(CC3)[S@](=N)(=O)C)C4=C5C=CNC5=NC=C4 [AZD6738] (first compound max 1 µM, partner max 10 µM) ?
A) 0.821

Q) // returns reported combination Emax for input CN(C)CCCOc1ccc(-c2ccc3ncc4c(c3c2)n(C2CCOCC2)c(=O)n4C)cn1 [AZD0156] + O=C(c1cc(Cc2n[nH]c(=O)c3ccccc23)ccc1F)N1CCN(C(=O)C2CC2)CC1 [Olaparib] (first compound max 3 µM, partner max 3 µM)
A) 0.193
